Target: T1, human glycophorin A on human red blood cells or red blood cell membranes (human, UniProt P02724 20-150)
T1 construct: whole, on cells; also called hRBC; human RBC membranes
T1 sequence (looked up): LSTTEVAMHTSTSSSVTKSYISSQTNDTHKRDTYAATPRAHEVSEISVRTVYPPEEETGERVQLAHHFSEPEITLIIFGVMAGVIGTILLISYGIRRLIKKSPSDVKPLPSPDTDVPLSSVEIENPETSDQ
Assay: scFv on intact human RBC, unbound scFv by ELISA; 60 min after 200-fold dilution
Measurement name: percentage of input scFv antibody bound (%)

>>> value_observed("TPP-7793 scFv with C-terminal 6xHIS tag (scFv) scFv: DIQLTQSPSFLSASVGDRVTITCRASSSVSYIYWFQQKPGKAPKLLIYATSTLQSGVPSRFSGSGSGTEYTLTISSLQPEDFATYYCHQRNSFPYTFGQGTKLEIKGGGGSGGGGSGGGGSGGGGSEVQLVQSGAEVKKPGASVKVSCKASGYTFTRYTIHWVRQAPGQGLEWMGYINPSSGYTRYNPKFKGRVTMTRDKSTSTAYMELRSLRSDDTAVYYCWTGTRDYWGQGTTVTVSSHHHHHH")
81

Reference for the values: patent US20190359687A1
